Species: Rattus norvegicus
Experiment: DrugMatrix - Regimen: Daily Repeat
Assay type: toxicity, organism-based, Sprague-Dawley
Design: regimen Daily Repeat, gender Male, age 6-8 weeks
Conditions: in vivo, po, 10 mg/kg, 72 h, tissue Plasma, route oral GAVAGE, dose level Low, time 3 day, vehicle .5 % CMC
quantity kind: LACTATE DEHYDROGENASE

Some compounds with recorded LACTATE DEHYDROGENASE:
COc1c(C)c2c(c(O)c1C/C=C(\C)CCC(=O)OCCN1CCOCC1)C(=O)OC2 [MYCOPHENOLATE MOFETIL] | 334.67 u/L
O=C1CN=C(c2ccccc2)c2cc([N+](=O)[O-])ccc2N1 [NITRAZEPAM] | 124.67 u/L
CC(=O)O[C@]1(C(C)=O)CC[C@H]2[C@@H]3C=C(Cl)C4=CC(=O)CC[C@]4(C)[C@H]3CC[C@@]21C [CHLORMADINONE ACETATE] | 134.67 u/L

Lab note: next compound to report on.
QUERY: I have this compound here, NS(=O)(=O)c1cc2c(cc1Cl)NCNS2(=O)=O [HYDROCHLOROTHIAZIDE] , and I need its recorded LACTATE DEHYDROGENASE.
RESULT: 306.67 u/L
